Origin of values: PubChem BioAssay AID2060483

- System: K24384-001-R-PDC complex spheroids, viability;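 further: spheroids exposed to compounds for seven days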
- test_method_notes: Anticancer human tumor K24384-001-R-PDC patient-derived pancreatic adenocarcinoma cell line growth inhibition [GQUAD]
- assay_conditions: second compound 0.1 µM; first compound 0.316 µM; active compounds read low
# key: entry, value: viability, T/C
The answer is to be given in %; state only the numeric part.

Solved entries:
[ask] Would you kindly share the measured viability, T/C for CC1COCCN1c1cc(C2(S(C)(=N)=O)CC2)nc(-c2ccnc3[nH]ccc23)n1 (stereo not given) + CN(C)c1ccc(Nc2c3ccc(NC(=O)CCN4CCCC4)cc3nc3cc(NC(=O)CCN4CCCC4)ccc23)cc1 ?
[reply] 84.4

[ask] How about C#Cc1c(F)ccc2cc(O)cc(-c3ncc4c(N5CC6CCC(C5)N6)nc(OCC56CCCN5CC(F)C6)nc4c3F)c12 (stereo not given) + Cc1cnc(CNC(=O)c2c(=O)c3ccc(N4CCCN(C)CC4)nc3n3c2sc2ccccc23)cn1 ?
[reply] 54

[ask] How about Cn1ncnc1[C@H]1c2n[nH]c(=O)c3cc(F)cc(c23)N[C@@H]1c1ccc(F)cc1 + Cc1cnc(CNC(=O)c2c(=O)c3ccc(N4CCCN(C)CC4)nc3n3c2sc2ccccc23)cn1 ?
[reply] 86.9

Others:
[ask] Would you kindly share the measured viability, T/C for CCCS(=O)(=O)Nc1ccc(F)c(C(=O)c2c[nH]c3ncc(-c4ccc(Cl)cc4)cc23)c1F + Cc1[nH]c2ccc(F)cc2c1-c1nc2c3cccnc3c3ncccc3c2[nH]1 ?
[reply] 117

[ask] How about CC1COCCN1c1cc(-c2ccnn2C)c2ccnc(-c3ccn[nH]3)c2n1 (stereo not given) + Cc1[nH]c2ccc(F)cc2c1-c1nc2c3cccnc3c3ncccc3c2[nH]1 ?
[reply] 44.3
